test_system: human recombinant serotonin (5-Hydroxytryptamine) 5-HT2A receptor (Homo sapiens, UniProt P28223)
Construct: expressed in transfected cells; host or cells: CHO-K1 cells
Sequence (P28223 whole entry): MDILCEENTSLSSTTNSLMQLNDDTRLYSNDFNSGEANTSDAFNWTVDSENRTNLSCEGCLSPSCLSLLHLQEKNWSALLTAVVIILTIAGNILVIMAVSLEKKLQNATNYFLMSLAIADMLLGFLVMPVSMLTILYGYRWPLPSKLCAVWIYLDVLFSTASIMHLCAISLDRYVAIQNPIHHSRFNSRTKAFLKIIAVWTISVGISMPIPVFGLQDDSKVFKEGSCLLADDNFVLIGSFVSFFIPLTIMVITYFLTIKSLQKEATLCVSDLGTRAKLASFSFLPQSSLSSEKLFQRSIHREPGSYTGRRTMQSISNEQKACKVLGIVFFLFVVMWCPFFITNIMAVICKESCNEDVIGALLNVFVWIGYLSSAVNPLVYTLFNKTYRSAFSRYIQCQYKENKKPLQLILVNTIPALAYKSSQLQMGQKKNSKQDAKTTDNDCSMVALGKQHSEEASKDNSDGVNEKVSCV
run_description: Serotonin 5-HT2A radioligand binding ([3H]Ketanserin)
cond: compound at 1 μM; CHO-K1 cells; read-out: Serotonin (1 μM) 5-HT2A, percent inhibition of specific binding
I'd appreciate it if you could label each record using inhibition at 1 µM and these ranges: small value (below 50%), mid value (50% to below 90%), large value (90% or more)

// below: answered compounds
> print(dat)
                                   compound  classification
1  CN1CCc2c(c3cc(Cl)ccc3n2CC(=O)OC(C)(C)C)C1       mid value
2  Cc1ccc2c(c1)c1c(n2CCC(=O)NC2CCCC2)CCN(C)C1       mid value
3            Cc1ccc2c(c1)c1c(n2CCO)CCN(C)C1       mid value

Let's switch to this compound now.
Could you place Cc1ccc2c(c1)c1c(n2CCC(N)=O)CCN(C)C1 in its proper category? Many thanks.
small value

###

test_system: human recombinant adrenergic α2C receptor (Homo sapiens)
Construct: expressed in transfected cells; host or cells: insect Sf9 cells
Sequence (P18825 1-462): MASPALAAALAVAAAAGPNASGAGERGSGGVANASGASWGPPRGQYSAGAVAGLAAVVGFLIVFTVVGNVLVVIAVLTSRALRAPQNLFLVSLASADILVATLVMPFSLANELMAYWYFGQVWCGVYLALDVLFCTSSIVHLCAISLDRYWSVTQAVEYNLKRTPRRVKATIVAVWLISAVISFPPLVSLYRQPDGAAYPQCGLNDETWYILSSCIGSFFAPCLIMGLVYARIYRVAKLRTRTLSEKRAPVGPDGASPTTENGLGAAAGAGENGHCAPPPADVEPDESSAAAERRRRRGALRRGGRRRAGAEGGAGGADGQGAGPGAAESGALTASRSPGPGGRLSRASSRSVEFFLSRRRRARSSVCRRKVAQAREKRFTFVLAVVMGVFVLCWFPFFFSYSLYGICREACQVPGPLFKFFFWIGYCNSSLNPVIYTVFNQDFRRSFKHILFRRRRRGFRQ
run_description: Adrenergic α2C radioligand binding ([3H]MK-912)
cond: compound at 1 μM; insect Sf9 cells; read-out: Adrenergic (1 μM) α2C, percent inhibition of specific binding
Lab note: anything with inhibition at 1 µM at or over 20% counts as Met; the rest go in Not met.

// below: answered compounds
> print(dat)
                                   compound                               test.system  classification
1     CCOC(=O)CCn1c2c(c3cc(C)ccc31)CN(C)CC2  human recombinant adrenergic α2C receptor (Homo sapiens)             Met
2  Cc1ccc2c(c1)c1c(n2CCC(=O)NC2CCCC2)CCN(C)C1  human recombinant adrenergic α2C receptor (Homo sapiens)         Not met
3  Cc1ccc2c(c1)c1c(n2CCNC(=O)OCC(Cl)(Cl)Cl)CCN(C)C1  human recombinant adrenergic α2C receptor (Homo sapiens)             Met
4           C#CCn1c2c(c3cc(C)ccc31)CN(C)CC2  human recombinant adrenergic α2C receptor (Homo sapiens)             Met
5           Cc1ccc2c(c1)c1c(n2CC#N)CCN(C)C1  human recombinant adrenergic α2C receptor (Homo sapiens)             Met
6      CNC(=O)CCn1c2c(c3cc(C)ccc31)CN(C)CC2  human recombinant adrenergic α2C receptor (Homo sapiens)         Not met
7  Cc1ccc2c(c1)c1c(n2CCNC(=O)C2CCCNC2)CCN(C)C1 (centres unmarked)  human recombinant adrenergic α2C receptor (Homo sapiens)         Not met
8  Cc1ccc2c(c1)c1c(n2CCC(=O)NC2CCCCC2)CCN(C)C1  human recombinant adrenergic α2C receptor (Homo sapiens)         Not met

Say whether CCNC(=O)CCCn1c2c(c3cc(C)ccc31)CN(C)CC2 shows inhibition at 1 µM of 20% or more.
Met

Say whether CCNC(=O)CCn1c2c(c3cc(C)ccc31)CN(C)CC2 shows inhibition at 1 µM of 20% or more.
Not met

Say whether CCOC(=O)CCCn1c2c(c3cc(C)ccc31)CN(C)CC2 shows inhibition at 1 µM of 20% or more.
Met
